The measured values listed here are drawn from patent US20180042918A1.

- Protocol summary: Concentration in tissue (human, oral administration): epithelial lining fluid, alveolar macrophages, plasma
- Assay type: in vivo
- Study conditions: male, alveolar macrophages, oral single dose 75 mg, 24 hr, read-out: TISSUE DISTRIBUTION RATIO, ALVEOLAR MACROPHAGES
Readout type: Kp at 24 h
Keep it simple and answer with nothing but the number.

Report Kp at 24 h, nothing else, for this compound: COc1c(N2C[C@H](CNC3CC3)[C@H](F)C2)c(F)cc2c(=O)c(C(=O)O)cn(CCF)c12.Cl [Compound D, hydrochloride]
38

###

# maps each entry to its IC50
- Tested on: DNA gyrase derived from S. pneumoniae IID553 (Streptococcus pneumoniae serotype 4, UniProt P0A4L9+P72524)
- Protocol summary: Enzyme inhibitory activity, supercoiling of relaxed pBR322
Please give a number only; it is taken to be in µM.

Some compounds with recorded IC50:
* C[C@H]1COc2c(N3CCN(C)CC3)c(F)cc3c(=O)c(C(=O)O)cn1c23 | 443
* C[C@H]1NCc2cc(-c3ccc4c(=O)c(C(=O)O)cn(C5CC5)c4c3OC(F)F)ccc21 | 84.4

Attention now turns to another entry.
Report IC50, nothing else, for this compound: COc1c(N2C[C@H](CNC3CC3)[C@H](F)C2)c(F)cc2c(=O)c(C(=O)O)cn(CCF)c12.Cl [Compound D, hydrochloride]
12.6

###

- Protocol summary: Concentration in tissue (human, oral administration): epithelial lining fluid, alveolar macrophages, plasma
- Type: in vivo
- Study conditions: male, epithelial lining fluid, oral single dose 75 mg, 24 hr, read-out: TISSUE DISTRIBUTION RATIO, ALVEOLAR EPITHELIAL LINING FLUID
Readout type: Kp at 24 h

Report Kp at 24 h, nothing else, for this molecule: COc1c(N2C[C@H](CNC3CC3)[C@H](F)C2)c(F)cc2c(=O)c(C(=O)O)cn(CCF)c12.Cl [Compound D, hydrochloride]
15

###

- Protocol summary: Concentration in tissue (human, oral administration): epithelial lining fluid, alveolar macrophages, plasma
- Format: in vivo
- Study conditions: male, alveolar macrophages, oral single dose 75 mg, 1 hr, read-out: TISSUE DISTRIBUTION RATIO, ALVEOLAR MACROPHAGES
Readout type: Kp at 1 h
Keep it simple and answer with nothing but the number.

Report Kp at 1 h, nothing else, for this compound: COc1c(N2C[C@H](CNC3CC3)[C@H](F)C2)c(F)cc2c(=O)c(C(=O)O)cn(CCF)c12.Cl [Compound D, hydrochloride]
31.9

###

# maps each entry to its FREQUENCY OF DEVELOPMENT OF RESISTANT BACTERIA (AVERAGE OF TWO MEASURED VALUES)
- Test system: S. aureus ATCC29213
- Protocol summary: Frequency of development of resistant bacteria
- Format: cell-based, Staphylococcus aureus
- Study conditions: S. aureus ATCC29213, 4 × MIC, about 70 hours
Marks after values point to notes of the source that are not given here.

Some compounds with recorded FREQUENCY OF DEVELOPMENT OF RESISTANT BACTERIA (AVERAGE OF TWO MEASURED VALUES):
- O=C(O)c1cn(C2CC2)c2cc(N3CCNCC3)c(F)cc2c1=O [CPFX, ciprofloxacin]: 6.2 × 10^−9*
- COc1c(N2C[C@H](CNC3CC3)[C@H](F)C2)c(F)cc2c(=O)c(C(=O)O)cn(CCF)c12.Cl [Compound D]: <2.1 × 10^−9
- C[C@H]1NCc2cc(-c3ccc4c(=O)c(C(=O)O)cn(C5CC5)c4c3OC(F)F)ccc21 [GRNX, garenoxacin]: 8.2 × 10^−9*

Attention now turns to another entry.
Quote S. aureus ATCC29213 FREQUENCY OF DEVELOPMENT OF RESISTANT BACTERIA (AVERAGE OF TWO MEASURED VALUES) for entry C[C@H]1COc2c(N3CCN(C)CC3)c(F)cc3c(=O)c(C(=O)O)cn1c23 [LVFX, levofloxacin] .
<2.1 × 10^−9

###

- Protocol summary: Concentration in tissue (human, oral administration): epithelial lining fluid, alveolar macrophages, plasma
- Type: in vivo
- Study conditions: male, epithelial lining fluid, oral single dose 75 mg, 6 hr, read-out: TISSUE DISTRIBUTION RATIO, ALVEOLAR EPITHELIAL LINING FLUID
Readout type: Kp at 6 h
Keep it simple and answer with nothing but the number.

Report Kp at 6 h, nothing else, for this compound: COc1c(N2C[C@H](CNC3CC3)[C@H](F)C2)c(F)cc2c(=O)c(C(=O)O)cn(CCF)c12.Cl [Compound D, hydrochloride]
15.2

###

- Protocol summary: Concentration in tissue (human, oral administration): epithelial lining fluid, alveolar macrophages, plasma
- Type: in vivo
- Study conditions: male, alveolar macrophages, oral single dose 75 mg, 2 hr, read-out: TISSUE DISTRIBUTION RATIO, ALVEOLAR MACROPHAGES
Readout type: Kp at 2 h
Keep it simple and answer with nothing but the number.

Report Kp at 2 h, nothing else, for this molecule: COc1c(N2C[C@H](CNC3CC3)[C@H](F)C2)c(F)cc2c(=O)c(C(=O)O)cn(CCF)c12.Cl [Compound D, hydrochloride]
18.5

###

- Protocol summary: Concentration in tissue (human, oral administration): epithelial lining fluid, alveolar macrophages, plasma
- Type: in vivo
- Study conditions: male, alveolar macrophages, oral single dose 75 mg, 4 hr, read-out: TISSUE DISTRIBUTION RATIO, ALVEOLAR MACROPHAGES
Readout type: Kp at 4 h
Keep it simple and answer with nothing but the number.

Report Kp at 4 h, nothing else, for this compound: COc1c(N2C[C@H](CNC3CC3)[C@H](F)C2)c(F)cc2c(=O)c(C(=O)O)cn(CCF)c12.Cl [Compound D, hydrochloride]
21.9

###

- Tested on: DNA gyrase derived from S. aureus (Staphylococcus aureus, UniProt P0A0K8+P20831)
- Sequence (P0A0K8 whole entry): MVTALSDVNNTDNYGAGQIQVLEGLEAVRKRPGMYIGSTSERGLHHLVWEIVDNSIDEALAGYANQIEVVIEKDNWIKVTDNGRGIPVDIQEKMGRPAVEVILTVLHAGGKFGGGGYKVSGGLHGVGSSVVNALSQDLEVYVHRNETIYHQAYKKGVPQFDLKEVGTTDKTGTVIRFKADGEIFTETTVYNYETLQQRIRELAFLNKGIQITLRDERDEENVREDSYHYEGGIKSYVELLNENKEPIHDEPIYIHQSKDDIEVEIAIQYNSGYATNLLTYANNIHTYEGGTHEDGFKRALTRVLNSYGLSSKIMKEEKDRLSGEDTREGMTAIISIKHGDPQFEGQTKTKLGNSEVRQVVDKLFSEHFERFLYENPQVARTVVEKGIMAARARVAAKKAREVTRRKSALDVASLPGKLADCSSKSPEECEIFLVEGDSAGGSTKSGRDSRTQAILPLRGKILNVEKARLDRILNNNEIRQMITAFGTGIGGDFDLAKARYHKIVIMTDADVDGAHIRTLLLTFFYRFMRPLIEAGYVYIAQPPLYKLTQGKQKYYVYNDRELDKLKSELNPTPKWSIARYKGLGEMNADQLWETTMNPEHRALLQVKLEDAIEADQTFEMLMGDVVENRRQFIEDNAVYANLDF
- Sequence (P20831 whole entry): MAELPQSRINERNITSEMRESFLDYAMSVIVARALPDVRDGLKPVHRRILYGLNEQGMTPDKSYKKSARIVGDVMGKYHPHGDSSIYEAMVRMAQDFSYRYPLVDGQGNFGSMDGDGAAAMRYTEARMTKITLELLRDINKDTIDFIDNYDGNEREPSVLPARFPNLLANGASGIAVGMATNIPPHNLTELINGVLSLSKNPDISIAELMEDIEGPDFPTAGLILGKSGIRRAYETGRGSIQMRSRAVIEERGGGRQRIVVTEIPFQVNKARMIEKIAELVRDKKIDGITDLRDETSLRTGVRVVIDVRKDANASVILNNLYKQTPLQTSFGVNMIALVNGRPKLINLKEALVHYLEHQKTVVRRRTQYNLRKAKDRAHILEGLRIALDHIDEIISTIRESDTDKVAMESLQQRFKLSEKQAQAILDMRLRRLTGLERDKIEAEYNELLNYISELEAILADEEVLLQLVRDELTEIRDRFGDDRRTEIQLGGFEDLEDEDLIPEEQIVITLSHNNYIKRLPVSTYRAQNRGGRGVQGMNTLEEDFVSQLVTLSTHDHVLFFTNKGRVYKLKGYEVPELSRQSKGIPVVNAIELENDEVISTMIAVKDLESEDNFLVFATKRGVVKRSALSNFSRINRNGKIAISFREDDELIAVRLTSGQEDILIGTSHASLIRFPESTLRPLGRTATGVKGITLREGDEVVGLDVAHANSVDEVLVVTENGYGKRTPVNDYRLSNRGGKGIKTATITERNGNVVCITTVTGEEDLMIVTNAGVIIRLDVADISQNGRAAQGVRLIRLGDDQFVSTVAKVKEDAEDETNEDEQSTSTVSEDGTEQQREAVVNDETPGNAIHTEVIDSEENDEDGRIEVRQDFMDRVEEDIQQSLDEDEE
- Protocol summary: Enzyme inhibitory activity, supercoiling of relaxed pBR322
- Type: biochemical
Readout type: IC50 (µM)
Please give a number only; it is taken to be in µM.

Report IC50, nothing else, for this compound: COc1c(N2C[C@H](CNC3CC3)[C@H](F)C2)c(F)cc2c(=O)c(C(=O)O)cn(CCF)c12.Cl [Compound D, hydrochloride]
3.57

###

- Protocol summary: Concentration in tissue (human, oral administration): epithelial lining fluid, alveolar macrophages, plasma
- Format: in vivo
- Study conditions: male, epithelial lining fluid, oral single dose 75 mg, 2 hr, read-out: TISSUE DISTRIBUTION RATIO, ALVEOLAR EPITHELIAL LINING FLUID
Readout type: Kp at 2 h
Keep it simple and answer with nothing but the number.

Report Kp at 2 h, nothing else, for this molecule: COc1c(N2C[C@H](CNC3CC3)[C@H](F)C2)c(F)cc2c(=O)c(C(=O)O)cn(CCF)c12.Cl [Compound D, hydrochloride]
18.4

###

- Protocol summary: Concentration in tissue (human, oral administration): epithelial lining fluid, alveolar macrophages, plasma
- Type: in vivo
- Study conditions: male, alveolar macrophages, oral single dose 75 mg, over 1 to 24 hours, read-out: tissue distribution ratio in alveolar macrophages, range
Readout type: Kp

Report Kp, nothing else, for this molecule: COc1c(N2C[C@H](CNC3CC3)[C@H](F)C2)c(F)cc2c(=O)c(C(=O)O)cn(CCF)c12.Cl [Compound D, hydrochloride]
18.5 to 56.4

###

- Test system: E. coli ATCC25922
- Protocol summary: Frequency of development of resistant bacteria
- Type: cell-based, Escherichia coli
- Study conditions: E. coli ATCC25922, 4 × MIC, about 70 hours
Marks after values point to notes of the source that are not given here.
Readout type: FREQUENCY OF DEVELOPMENT OF RESISTANT BACTERIA (AVERAGE OF TWO MEASURED VALUES)

Some compounds with recorded FREQUENCY OF DEVELOPMENT OF RESISTANT BACTERIA (AVERAGE OF TWO MEASURED VALUES):
- C[C@H]1COc2c(N3CCN(C)CC3)c(F)cc3c(=O)c(C(=O)O)cn1c23: 3.9 × 10^−9*
- C[C@H]1NCc2cc(-c3ccc4c(=O)c(C(=O)O)cn(C5CC5)c4c3OC(F)F)ccc21: <1.9 × 10^−9
- O=C(O)c1cn(C2CC2)c2cc(N3CCNCC3)c(F)cc2c1=O: 1.2 × 10^−8*

Attention now turns to another entry.
Report FREQUENCY OF DEVELOPMENT OF RESISTANT BACTERIA (AVERAGE OF TWO MEASURED VALUES), nothing else, for this compound: COc1c(N2C[C@H](CNC3CC3)[C@H](F)C2)c(F)cc2c(=O)c(C(=O)O)cn(CCF)c12.Cl
<1.9 × 10^−9
